system.under.test: T1, TNF-beta (human, UniProt P01374 35-205)
T1 construct: also called TNFβ; Tumour Necrosis Factor-beta
T1 sequence (looked up): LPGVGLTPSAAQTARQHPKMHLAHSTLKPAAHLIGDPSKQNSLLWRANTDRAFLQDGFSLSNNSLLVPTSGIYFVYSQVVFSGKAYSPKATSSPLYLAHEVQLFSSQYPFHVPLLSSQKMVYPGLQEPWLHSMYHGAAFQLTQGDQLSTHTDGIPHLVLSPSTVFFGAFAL
procedure.text: phage ELISA
quantity.measured: binding result

I050A07 (scFv) scFv: QVQLVQSGAEVKKPGASMKVSCKASAGRASAYGFAMHPIHWVRQAPGQGLEWMGWINGGTGNTKYSEKFLGRVTMTSDTSATTAYMELSSLRSEDTAVYYCARQDNDPLTGYKLGFDYWGKGTLVTVSSGGGGSGGGGSGGGGSAQSVVTQPPSVSGAPGQRVTISCTGSSTNVGAGYGVHWYQQFPETAPKLLIYGGSNRPSGVPDRFSGSQSGTSASLAITGLQAEDEADYYCQSYDTTLSGYVFGTGTKVTVLG ... no binding
I026C04 (scFv) scFv: QVQLVQSGAEVKKPGSSVKVSCRASGGSFNHAISWVRQAPGRGLEWMGGILPMYGTANYAQKFQGRVTITADKLTNTVYMDLSRLRYEDTAVYYCARELGLSIVGATTGALDMWGKGTLVTVSSGGGGSGGGGSGGGGSAQSVLTQPPSVSAAPGQKVTISCSGSSSNIGNNYVSWYQQIPGTAPKLLIYENNKRPSGIPDRFSGSKSGASATLDITGLQTGDEADYYCGTWHSSQVVFGGGTKLTVLG ... no binding
I031C07 (scFv) scFv: EVQLVQSGAEVKKPGSSVKVSCRASGGSFIDGSINWLRQAPGQGLEWVGGTIPLANRANYAQKFRDRVTITADELTAIVFLELTSLRSDDTALYYCARSSPPRWYDALTGDSSYHSAMDVWGQGTMVTVSSGGGGSGGGGSGGGGSAQSALTQPPSASGSPGQSVTISCSGTSSDIGDSNSVSWYQQHPGKAPKLLIYEVTKRPSGVPDRFAGSRSDNTASLTVSGLQTEDEADYYCSSSAARNHLVFGGGTKVTVLG ... no binding
